- experiment_summary: in vivo
- conditions: rat, in vivo, iv, 10 mg/kg, CL, tofacitinib 10 mg/kg intravenous; LC-ISN rats
- Protocol: Blood collection was performed at 0, 1, 5, 15, 30, 45, 60, 90, 120, 180, 240, 360, 480, 600, and 720 minutes for intravenous administration of tofacitinib, and at 0, 5, 15, 30, 45, 60, 90, 120, 180, 240, 360, 480, 600, and 720 minutes for oral administration to quantify concentrations of tofacitinib in the plasma. Then, urine was collected for 24 hours to analyze the concentration of tofacitinib excreted in urine as well.
property_label: clearance (mL/min/kg)
Answers are plain numbers, in mL/min/kg.

Ask: Consider the molecule C[C@@H]1CCN(C(=O)CC#N)C[C@@H]1N(C)c1ncnc2[nH]ccc12 and give its measured clearance.
Result: 13.8

###

- experiment_summary: in vivo
- conditions: rat, in vivo, po, 20 mg/kg, CLR, tofacitinib 20 mg/kg oral; LC-ISN 15 rats
- Procedure: Blood collection was performed at 0, 1, 5, 15, 30, 45, 60, 90, 120, 180, 240, 360, 480, 600, and 720 minutes for intravenous administration of tofacitinib, and at 0, 5, 15, 30, 45, 60, 90, 120, 180, 240, 360, 480, 600, and 720 minutes for oral administration to quantify concentrations of tofacitinib in the plasma. Then, urine was collected for 24 hours to analyze the concentration of tofacitinib excreted in urine as well.
property_label: CL renal (mL/min/kg)
Answers are plain numbers, in mL/min/kg.

Ask: Query: CL renal; subject: C[C@@H]1CCN(C(=O)CC#N)C[C@@H]1N(C)c1ncnc2[nH]ccc12
Result: 5.71

###

- experiment_summary: in vivo
- conditions: rat, in vivo, po, 20 mg/kg, Tmax, tofacitinib 20 mg/kg oral; LC-ISN 15 rats
property_label: Tmax

Ask: Name the recorded Tmax for C[C@@H]1CCN(C(=O)CC#N)C[C@@H]1N(C)c1ncnc2[nH]ccc12 .
Result: 1.43 h

###

- experiment_summary: in vivo
- conditions: rat, in vivo, po, 20 mg/kg, Cmax, tofacitinib 20 mg/kg oral; LC rats
property_label: Cmax

Ask: // returns reported Cmax for input C[C@@H]1CCN(C(=O)CC#N)C[C@@H]1N(C)c1ncnc2[nH]ccc12
Result: 9100 ng/mL

###

- experiment_summary: in vivo
- conditions: rat, in vivo, po, 20 mg/kg, Cmax, tofacitinib 20 mg/kg oral; CON rats
property_label: Cmax (ng/mL)
Numbers only, in ng/mL.

Ask: Request the reported Cmax associated with C[C@@H]1CCN(C(=O)CC#N)C[C@@H]1N(C)c1ncnc2[nH]ccc12
Result: 3530

###

- experiment_summary: in vivo
- conditions: rat, in vivo, po, 20 mg/kg, Cmax, tofacitinib 20 mg/kg oral; LC-ISN 15 rats
property_label: Cmax (µg/mL)
Give bare numbers, in µg/mL.

Ask: If you can, please state the reported Cmax value of C[C@@H]1CCN(C(=O)CC#N)C[C@@H]1N(C)c1ncnc2[nH]ccc12 [tofacitinib] .
Result: 6.08
